// Isometric tension, relaxation (Mean ± SEM) lookup, one value per entry
test system: rat aortic ring segments preconstricted with phenylephrine; assay: Isometric tension studies: vasodilation of preconstricted rat aortic ring segments; format: cell-based; conditions: Log [M] −4.5
endpoint label: Isometric tension, relaxation (Mean ± SEM) (%)

[
  {
    "molecule": "CCc1ccc(CCOc2ccc(CC3SC(=O)NC3=O)cc2)nc1 (racemic)",
    "readout number": 11.19
  },
  {
    "molecule": "CCc1ccc(CCOc2ccc(CC3SC(=O)N(COC(=O)NCCO[N+](=O)[O-])C3=O)cc2)nc1 (stereo not shown)",
    "readout number": 79.07
  },
  {
    "molecule": "O=[N+]([O-])O[C@@H]1CO[C@H]2[C@@H]1OC[C@@H]2O [ISMN, Isosorbide-5-mononitrate]",
    "readout number": 16.76
  },
  {
    "molecule": "O=C(NCCO[N+](=O)[O-])OCCl [Linker 2, chloromethyl N-2-nitrooxyethylcarbamate]",
    "readout number": 86.66
  }
]
